So I've got a bunch of compounds here, and I need their growth values.
Test system: DU-145 prostate
experiment_description: NCI-60 one-dose screen, 48 h (100 = growth as untreated, 0 = no growth, -100 = all killed)
study_conditions: 10 µM unless noted
The panel holds about 83,000 compounds, 20% with a hit somewhere; the sample as a whole holds those more often.
Answers are plain numbers, in %.

Reference set, count: 3
CCNCCNc1cc(-c2cccc(C(F)(F)F)c2)c(C#N)c2nc3ccccc3n12; -74.9
O=C(CCl)N1c2cccc3cccc(c23)N(C(=O)CCl)C1c1cn(-c2ccccc2)nc1-c1cccc([N+](=O)[O-])c1; 98
CC/C=C/[C@@H]1C=C[C@@H]2CCC[C@H]2[C@@H]1CC[C@H](O)[C@H](C)N; -12.9

Consider the following items and state reported growth for each.
1. CC(=O)c1sc(-c2ccccc2)cc1N
2. CC(=O)c1ccc2c(c1)CCN2
3. COc1ccc(-n2nnc(C(=O)NCCc3c[nH]c4ccc(F)cc34)c2C)cc1
4. O=[N+]([O-])c1ccc(-c2cc3c(Nc4ccc(OCc5cccc(Cl)c5)c(Cl)c4)ncnc3s2)cc1

Solution:
1: 102; 2: 104; 3: 107; 4: 70.4

List reported growth for each of these compounds:
1. O=C(NCc1cn(Cc2cccc(Oc3ccccc3)c2)nn1)c1cccnc1NCc1ccc(Cl)cc1
2. Cc1cc(N2CCCCC2)nc(N(CCNc2ccnc3cc(Cl)ccc23)Cc2ccccn2)n1
3. CCOC(=O)c1sc2ccc(NCc3nc[nH]c3C)cc2c1NC(=O)c1cc(OC)c(OC)c(OC)c1

Solution:
1: 15; 2: 61.9; 3: 86.7

* * *

Test system: MOLT-4 leukemia
experiment_description: NCI-60 one-dose screen, 48 h (100 = growth as untreated, 0 = no growth, -100 = all killed)
study_conditions: 10 µM unless noted
The panel holds about 83,000 compounds, 20% with a hit somewhere; the sample as a whole holds those more often.
Can you tell me growth for the items I'm about to list?
Numbers only, in %.

Solved entries:
Cc1nc(-c2ccccc2)cc2c(O)c(C(=O)N/N=C/c3ccc(N(C)C)cc3)[nH]c(=O)c12; 22.9
COc1ccc(-n2sc(=O)n(Cc3ccc(COC(=O)C(C)c4ccc(CC(C)C)cc4)cc3)c2=O)cc1 (stereo unspecified); -18.3
CCc1c(C(=O)N[C@@H]2c3cc(Cl)ccc3CC[C@@H]2O)[nH]c(C)c1C(C)=O; 68.8
O=C1/C(=C/c2ccc([N+](=O)[O-])cc2)COc2ccc(O)c(O)c21; -1.02
COc1ccc(-c2nnc(-c3ccc4c(c3)nc(-c3ccccc3)n4C3CCCCC3)o2)cc1; 31.5
COc1ccc(/C(C)=C(\c2ccc(Cl)cc2)c2ccc(OCCN3CCCCCC3)cc2)cc1F; 26.6
CC(C)N(CCOC(=O)Nc1ccccc1Cl)C(C)C; 88.6
CC(/C=N/NC(=O)c1cc(-c2ccco2)[nH]n1)=C\c1ccccc1; 96.6
N#Cc1c(N)n2c(nc1=Nc1ccc([N+](=O)[O-])cc1)sc1cc(Cl)ccc12; 93.4
COc1ccc(-c2nc3sccn3c2/C=C/C(=O)c2c[nH]c3ccccc23)cc1; -5.59

Each of the following entries comes with a recorded value; kindly state growth for each.
1. COc1ccc(/C=C2\COc3ccc(O)cc3C2=O)cc1OC
2. COc1ccc(OC)c(Nc2nc3nonc3nc2Nc2cc(OC)ccc2OC)c1
3. NC(=Nc1ccc(N)cc1)C(N)=Nc1ccc(N)cc1
4. C=C(C)C1CCC(=C)C2CCC3(C)OC12/C=C(/COC(C)=O)CCC3O (stereo unspecified)
5. CN(C)c1ccc(-c2cc(-c3ccc(Nc4nc(Nc5ccccc5)nc(Nc5ccc(Cl)cc5)n4)cc3)nc(N)n2)cc1
6. COc1ccc2cc(-c3ccc(C(=O)NN)c(C)n3)ccc2c1

Solution:
48
88.8
124
83.6
-4.17
74

For each of the items listed, what is its growth?
1. COc1cc2oc3cc(C)oc(=O)c3c2cc1OC
2. CCCc1cc(=O)oc2c3c(c4c(c12)OC(C)(C)C=C4)O[C@@H](C)[C@H](C)C3=O
3. O=C(O)c1ccc(CO)o1
4. COc1ccc(/C=C2\COc3ccc(O)c(O)c3C2=O)c(OC)c1
5. O=C(CC12CC3CC(CC(C3)C1)C2)NCCOCCOCCNC(=O)c1cc2c(o1)C(=O)c1ccccc1C2=O

Solution:
95
69.1
100
7.29
-4.92

* * *

Test system: HOP-62 NSCLC
experiment_description: NCI-60 one-dose screen, 48 h (100 = growth as untreated, 0 = no growth, -100 = all killed)
study_conditions: 10 µM unless noted
Compounds without any hit were thinned out: in the full panel of roughly 83,000, 20% have a hit.
property_label: growth (%)
Give bare numbers, in %.

A selection of reference data follows.
O=C(/C=C/C12c3ccccc3C(c3ccccc31)C1C(=O)N(c3ccccc3)C(=O)C12)c1ccc(Cl)cc1 (stereo not given); 23.5
COc1ccc(-c2cc(-c3cc(OC)ccc3OC)[nH]c(=O)c2C#N)cc1; 48.1
O=C1Nc2ccccc2SC1c1ccccc1Cl (stereo not given); 96.3
Cc1ccc(/C=C(\C#N)n2nnc3cc(Cl)c(Cl)cc32)cc1; 33.8

Problem: Could you share which growth value was measured for O=C1NC(=S)S/C1=C\N1N=C(c2ccc(Cl)cc2)CC1c1ccc(F)cc1 (stereo not given) ?
Solution: 103

* * *

Tested on: OVCAR-8 ovarian
experiment_description: NCI-60 one-dose screen, 48 h
study_conditions: 10 µM unless noted
Compounds without any hit were thinned out: in the full panel of roughly 83,000, 20% have a hit. Active and inactive are the calls of the source. How the source made its calls: active means growth percent below 10; inactive means the rest.
Lab note: assign the record to one of active, inactive

CN1CCC(=C2c3ccccc3C=Cc3ccccc32)CC1; inactive
CC1(C)N=C(N)N=C(N)N1c1cccc(CN)c1; inactive
COc1cc(C(=O)/C=C/c2c(-c3ccc(F)cc3)nc3ncccn23)cc(OC)c1OC; inactive
CCn1nc(C#Cc2c(C)ccc3c(Nc4ccc(Cl)cc4)nccc23)c2c(N)ncnc21; active
Nc1c(C(=O)c2ccc(Cl)s2)sc2nc3c(cc12)CCCC3; inactive
CCOC(=O)Cc1csc2nc(-c3ccccc3)nn12; inactive

Problem: Recorded test call requested for `N=C(N)c1ccc(-c2ccc(/C=C/c3ccccc3)s2)cc1`
Solution: active

Problem: Status in this test for `Nc1c(C(=O)Nc2ccccc2)sc2nc3c(cc12)CCCCCC3` ?
Solution: inactive

Problem: Would you mind telling me which call this test gave COc1cc(C2CC(=O)Nc3n[nH]c(-c4ccccc4)c32)cc(OC)c1OC (centres undefined) ?
Solution: inactive

Problem: For `COc1cccc(-c2cnco2)c1OCc1c(C)c(COc2c(OC)cccc2-c2cnco2)c(C)c(COc2c(OC)cccc2-c2cnco2)c1C` , which call appears in the assay record?
Solution: inactive

Problem: Lab log entry: `Oc1ccccc1-c1nc2ccccn2c1NCCN1CCOCC1` — outcome as called in the assay?
Solution: inactive

Problem: Called result for `C=C1C(=O)O[C@H]2[C@H]1CC/C(COC(=O)/C=C\C(=O)NCc1ccc(Cn3c(=O)sn(CCCC)c3=O)cc1)=C\CC[C@@]1(C)O[C@@H]21`
Solution: active

* * *

Test system: MOLT-4 leukemia
experiment_description: NCI-60 one-dose screen, 48 h (100 = growth as untreated, 0 = no growth, -100 = all killed)
study_conditions: 10 µM unless noted
The panel holds about 83,000 compounds, 20% with a hit somewhere; the sample as a whole holds those more often.
property_label: growth (%)
One number for each entry, in %.

For each listed entry, give its growth.
1. COc1ccc(-n2nnc(C(=O)NCCc3c[nH]c4ccc(F)cc34)c2C)cc1
2. CC1(C)N=C(N)N=C(N)N1c1cccc(CN)c1
3. Cc1nc(Nc2cccc(NC(=O)Nc3ccc(Cl)cc3)c2)c2ccccc2n1
4. CN(C)c1ccc2cc(-c3ccccc3F)c(N)nc2c1
5. CC(=O)Nc1ccc(C(=O)/C=C/c2ccccc2)cc1
6. N#C/C(=C\c1ccc(Br)cc1)n1nnc2cc(Cl)c(Cl)cc21

Solution:
1. 87.9
2. 95.1
3. 76.7
4. 35.1
5. 81.6
6. 6.13

* * *

Field: growth. Provide a value for each of the molecules that follow.
Test system: TK-10 renal
experiment_description: NCI-60 one-dose screen, 48 h (100 = growth as untreated, 0 = no growth, -100 = all killed)
study_conditions: 10 µM unless noted
Compounds without any hit were thinned out: in the full panel of roughly 83,000, 20% have a hit.
One number for each entry, in %.

Known results for molecules:
CC(C)(O)c1cccc(F)c1; 109
Nc1c(C(=O)c2ccccc2)nnc2ncnn12; 96
CN(CCCCCCCCNc1ccnc2ccccc12)Cc1ccc(-c2ccc(-c3ccc(C#N)cc3)s2)cc1; -50.1
COc1ccc(-c2nc3sc4c(c3c(=O)[nH]2)CCCC4)c2ccccc12; 38.3
CC(=[N-])N1CCC[C@@H](Nc2c3ccccc3nc3ccccc23)C1.[Cl][Pt].[NH-]CCC[NH-]; 1.35

Look at each molecule and report its growth.
1. NC(=Nc1ccc(N)cc1)C(N)=Nc1ccc(N)cc1
2. CN(C)CN1CCN(c2ccc3nc(-c4ccc5nc(-c6ccc(C(F)(F)F)cc6)[nH]c5c4)[nH]c3c2)CC1
3. NS(=O)(=O)c1cnccc1-n1ccc(=O)c(S(N)(=O)=O)c1

Solution:
1: 87.3; 2: 130; 3: 83.8

For every record below, what is its growth?
1. COc1c(C)cnc(CSc2nc(-c3ccc(C)cc3)cn2-c2ccc(Cl)cc2)c1C
2. O=C1NCC(=O)N(Cc2ccco2)[C@H]1Cc1ccccc1
3. CCOc1cc(N)ccc1C(=O)NCCCN(CC)CC
4. CS(=O)(=O)c1ccc(-c2[nH]c3ccc(F)cc3c2/C=N/NC(N)=S)cc1
5. CCN(CC)CCOc1ccc(/C(=C(\C)c2ccc(F)c(OC)c2)c2ccc(Cl)cc2)cc1
6. O=[N+]([O-])c1cccc(/C=C/c2ccccn2)c1

Solution:
[101, 85.5, 108, 37.8, 49.5, 104]
